Assay: qHTS profiling of Chloroquine Analogs as inhibitors of Plasmodium falciparum (3D7) proliferation
Activity calls are given as the source filed them. Calls follow the shape of the full dose curve.
Metric Name: Potency

COc1ncnc(NS(=O)(=O)c2ccc(N)cc2)c1OC	1500 nM (active)
COc1cc2c(cc1C(F)(F)F)N(C(=O)Nc1cc(F)cc(-c3cccnc3)c1)CC2	3760 nM (active)
CCCCN(CCCC)CCC(O)c1cc2c(Cl)cc(Cl)cc2c2cc(C(F)(F)F)ccc12 (stereo unspecified)	5.1 nM (active)
CO[C@H]1O[C@@H]2O[C@@]3(C)CC[C@@H]4[C@@H](C)CC[C@@H]([C@H]1C)[C@@]24OO3	inactive
O=C1C(=O)c2ccccc2C(O)=C1C1CCC(c2ccc(Cl)cc2)CC1 (stereo unspecified)	0.7 nM (active)

Per the records, this compound ( CCOc1ccccc1O[C@H](c1ccccc1)[C@H]1CNCCO1 ) has Potency equal to inactive

Potency recorded for this compound, CC(C)(C)c1cc(O)c(CN)c(C(C)(C)C)c1 , is 168 nM (active)

Sure, the documented Potency for CN1C[C@H](C(=O)N[C@]2(C)O[C@@]3(O)[C@@H]4CCCN4C(=O)[C@H](Cc4ccccc4)N3C2=O)C[C@@H]2c3cccc4[nH]cc(c34)C[C@H]21 is 530 nM (active)

---

activity change, negative = inhibition overview
Assay: qHTS profiling of Chloroquine Analogs as inhibitors of Plasmodium falciparum (3D7) proliferation
Conditions: at 28.7 µM (top of the series) unless noted
Field format: number, assumed %, no unit text.

Example cases with answers are listed next.
Cc1cccc(C)c1OCC(N)C(C)C (stereo unspecified)	-97.7
C[C@H]1[C@@H](OC(=O)CCC(=O)O)O[C@@H]2OC3(C)CC[C@H]4[C@H](C)CC[C@@H]1[C@@]24OO3	-101
C[C@@H]1[C@@H](CC(C[C@H]2O[C@@H]3O[C@]4(C)CC[C@@H]5[C@H](C)CC[C@@H]([C@H]2C)[C@@]35OO4)C(=O)NCc2ccc(F)cc2)O[C@@H]2O[C@]3(C)CC[C@H]4[C@H](C)CC[C@@H]1[C@@]24OO3 (stereo partly specified)	-101
CCc1nc(N)nc(N)c1-c1ccc(Cl)cc1	-98.9
Cc1nc2c(C#N)cccc2n1-c1ccc(C(=O)NC2CC2)s1	-100

Field activity change, negative = inhibition (entry CC[C@@H](C)[C@H]1O[C@]2(CC[C@H]1C)C[C@@H]1C[C@@H](CC=C(C)[C@@H](O[C@H]3C[C@H](OC)[C@@H](O[C@H]4C[C@H](OC)[C@@H](O)[C@H](C)O4)[C@H](C)O3)[C@@H](C)C=CC=C3CO[C@@H]4[C@H](O)C(C)=C[C@@H](C(=O)O1)[C@]34O)O2 ) reads -99.9

---

Assay: qHTS profiling of Chloroquine Analogs as inhibitors of Plasmodium falciparum (3D7) proliferation
Active and inactive are the calls of the source. The call rests on the fitted dose curve. Numbered stars: 1 amine (or outer) side, 2 acyl side, 3 side chain; on linkers, the order of the positions; unused ones are H or OH. Bridge positions count the residues as written; N and C are the ends. Square brackets hold non-standard residues; d marks the D form. Peptide text beside a SMILES is read from it. I, II: the chains in the order shown. Actinocin(9to1) = Cc1c2oc3c(C)ccc(C(=O)[*:1])c3nc-2c(C(=O)[*:2])c(N)c1=O; NMeV = CN[CH](C(=O)O)C(C)C; Sar = CNCC(=O)O
Valid outcomes are listed here; reply with one: true (1) = active, false (0) = inactive

Please review the following examples before continuing.
C=CC(C)=C[C@@]1(C)SC(=O)C(C)=C1O	false (0)
CSc1cccc(NC(=O)CC[C@H]2O[C@@H]3O[C@]4(C)CC[C@H]5[C@H](C)CC[C@@H]([C@@H]2C)[C@@]35OO4)c1	true (1)
CC(C)N=C(N)N=C(N)Nc1ccc(Cl)cc1	true (1)
CN(C)c1ccc2nc3ccc(=[N+](C)C)cc-3sc2c1	true (1)
C[C@H](N)CN1CCc2ccc(Br)cc21	true (1)

Which outcome was assigned to Cc1c2oc3c(C)ccc(C(=O)NC4C(=O)NC(C(C)C)C(=O)N5CCCC5C(=O)N(C)CC(=O)N(C)C(C(C)C)C(=O)OC4C)c3nc-2c(C(=O)NC2C(=O)NC(C(C)C)C(=O)N3CCCC3C(=O)N(C)CC(=O)N(C)C(C(C)C)C(=O)OC2C)c(N)c1=O (stereo not drawn) (I: TVP[Sar][NMeV] / II: TVP[Sar][NMeV]; ester I:1-I:C, II:1-II:C; linker I:N-II:N via Actinocin(9to1); configuration not given here) in this test? true (1)

Test call, this compound: OB1OCc2cc(F)ccc21 false (0)

Hi team, can someone confirm the assay call for CC1=CC(=O)c2ccccc2C1=O ? false (0)

---

Assay: qHTS profiling of Chloroquine Analogs as inhibitors of Plasmodium falciparum (3D7) proliferation
Settings: at 28.7 µM (top of the series) unless noted
Metric Name: activity change, negative = inhibition (%)
Field: numeric (%). Do not append units.

Sample records with activity change, negative = inhibition:
CCc1ccc(OCc2ccccc2C(=O)Nc2ccc3nc(C)cc(N)c3c2)cc1	-101
CCCC(=O)O[C@]1(C(=O)CCl)[C@H](C)C[C@@H]2[C@H]3CCC4=CC(=O)C=C[C@]4(C)[C@@]3(F)C(=O)C[C@@]21C	-101

Recorded result, COc1cc2c(Nc3ccc(NC(=O)c4ccccc4)cc3)ncnc2cc1OCCCN1CCOCC1 , activity change, negative = inhibition: -100

Recorded activity change, negative = inhibition (compound NC(=NCc1ccccc1)NC(=O)c1nc(Cl)c(N)nc1N ): -99.4

Given item C=CCON=C(C[C@H]1O[C@@H]2O[C@]3(C)CC[C@@H]4[C@H](C)CC[C@@H]([C@H]1C)[C@@]24OO3)[C@H]1O[C@@H]2O[C@]3(C)CC[C@H]4[C@H](C)CC[C@@H]([C@@H]1C)[C@@]24OO3 , the value recorded as its activity change, negative = inhibition is -102

Item: COc1ccc2nc3cc(Cl)ccc3c(Nc3cc(CN4CCCC4)c(O)c(CN4CCCC4)c3)c2n1 | activity change, negative = inhibition: -101

---

Assay: qHTS profiling of Chloroquine Analogs as inhibitors of Plasmodium falciparum (3D7) proliferation
Calls of active or inactive are those of the source. Calls come from the whole dose curve.
Please state which outcome applies, choosing from true (1) for active, false (0) for inactive

Cn1cncc1[C@@](N)(c1ccc(Cl)cc1)c1ccc2c(c1)c(-c1cccc(Cl)c1)cc(=O)n2C	true (1)
O=CN(O)CCCP(=O)(O)O	true (1)

Next:
Recorded call for CCCC[C@@H]1C[C@@H](C(=O)NC([C@H](C)Cl)[C@H]2O[C@H](S)[C@H](O)[C@@H](O)[C@@H]2O)N(C)C1 (stereo partly drawn) ? false (0)

---

Experiment: qHTS profiling of Chloroquine Analogs as inhibitors of Plasmodium falciparum (3D7) proliferation
Details: at 28.7 µM (top of the series) unless noted
Description: Plasmodium falciparum is a virulent malarial parasite that kills 1-2 million people worldwide each year. […] Because mature erythrocytes lack DNA, only Plasmodium-derived DNA is detected. The SYBR Green viability assay was adapted from a method described previously (Plouffe et al., 2008). […] The following morning, fluorescence intensity at 485(14) nm excitation and 535(25) nm emission wavelengths was measured on an EnVision (Perkin Elmer) plate reader. […]
Square brackets hold non-standard residues; d marks the D form. Peptide text beside a SMILES is read from it. Orn = NCCC[C@H](N)C(=O)O
Entries and their activity change, negative = inhibition

Please review the entries below; each comes with its answer.
C[C@@H]1CCC2[C@@H](C)[C@@H](O)O[C@@H]3O[C@@]4(C)CC[C@@H]1[C@@]23OO4 (stereo not given in full)	-101%
C[N+]1(C)CCC(=C(c2ccccc2)c2ccccc2)CC1	-94.2% [at 14.2 µM]
C=C[C@@H]1CN2CCC1C[C@@H]2C(O)c1ccnc2ccc(OC)cc12 (stereo not given in full)	-97.6%
CC(C)C[C@@H]1NC(=O)[C@H](CCCN)NC(=O)[C@H](C(C)C)NC(=O)[C@@H]2CCCN2C(=O)[C@@H](Cc2ccccc2)NC(=O)[C@H](CC(C)C)NC(=O)[C@H](CCCN)NC(=O)[C@H](C(C)C)NC(=O)[C@@H]2CCCN2C(=O)[C@@H](Cc2ccccc2)NC1=O (cyclo(V[Orn]L[dF]PV[Orn]L[dF]P))	-102%

Continue with the molecule presented below.
For reference, reported activity change, negative = inhibition for C[C@@H]1Cc2c([nH]c3cc(Cl)c(F)cc23)[C@]2(N1)C(=O)Nc1ccc(Cl)cc12 stands at -101%

---

Test: qHTS profiling of Chloroquine Analogs as inhibitors of Plasmodium falciparum (3D7) proliferation
The source made the active and inactive calls. Calls follow the shape of the full dose curve.
Result category, one only: active, inactive

Take a look at these entries with their results.
CN(C)CC/C=C1\c2ccccc2COc2ccccc21	active
COc1ccc(CCN(C)CCCC(C#N)(c2ccc(OC)c(OC)c2)C(C)C)cc1OC (stereo not given)	inactive
Cc1oncc1C(=O)Nc1ccc(C(F)(F)F)cc1	inactive

Look up the recorded call for COc1cc(NC(C)CCCN)c2ncccc2c1 (stereo not given) in this test. active

Outcome? COc1cccc(CCc2ccccc2OCC(CN(C)C)OC(=O)CCC(=O)O)c1 (stereo not given) active

Please state the recorded outcome for this compound: CN([C@@H](Cc1ccc(OS(=O)(=O)c2cccc3cnccc23)cc1)C(=O)N1CCN(c2ccccc2)CC1)S(=O)(=O)c1cccc2cnccc12 active

Hey, what did the test say about CN(C)CCOC(c1ccccc1)c1ccccc1 ? inactive
